B1: HDV Ribozyme (parent)
chain: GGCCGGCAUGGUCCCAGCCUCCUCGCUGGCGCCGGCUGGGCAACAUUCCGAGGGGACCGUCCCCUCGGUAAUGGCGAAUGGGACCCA

Variants of: B1
Assay: self-cleavage, relative activity (ratio to wild type); higher = more cleavage; co-transcriptional
Returns T if the recorded self-cleavage is greater than or equal to 0.3, and F otherwise.

Task: Check this variant for self-cleavage at or above 0.3: GGCCGGCAUGGUCCCAGCCUCCUCGCUGGCGCCGGCUGGGCAACAUUCCGAGGGGACCGUCCCCUCGGUAAUCGCGAAUGGAACCCA [G73C G82A]
Result: F

Task: Check this variant for self-cleavage at or above 0.3: GGCCGGCAUGGUCCCAGCCUCCUCGCUGGCUCCGGCUGGGCAACAUUCCGAGGGGACCGUCCCCUCGGUAAUGGCGAAUGGUACCCA [G31U G82U]
Result: F

Task: Check this variant for self-cleavage at or above 0.3: GGCCGGCAUGGUCCCGGCCUCCUUGCUGGCGCCGGCUGGGCAACAUUCCGAGGGGACCGUCCCCUCGGUAAUGGCGAAUGGGACCCA [A16G C24U]
Result: T

Task: Check this variant for self-cleavage at or above 0.3: GGCCGGCAUGGUCCGAGCCUCCUCGCUGGCGCCGGCUGGGCAACAUUCCGAGGGGACCGACCCCUCGGUAAUGGCGAAUGGGACCCA [C15G U60A]
Result: F

Task: Check this variant for self-cleavage at or above 0.3: GGCCGGCAUGGUCCCGGCUUCCUCGCUGGCGCCGGCUGGGCAACAUUCCGAGGGGACCGUCCCCUCGGUAAUGGCGAAUGGGACCCA [A16G C19U]
Result: F

Next:
Task: Check this variant for self-cleavage at or above 0.3: GGCCGGCAUGGUCCCAGCCUCUUCGCUGGCGCCGGCUGGGCAACAUUCCGAGGGGACCGUCCCUUCGGUAAUGGCGAAUGGGACCCA [C22U C64U]
Result: T

Task: Check this variant for self-cleavage at or above 0.3: UGCCGGCAUGGUCCCAGCCUCCUCGCUGGCGCCGGCUGUGCAACAUUCCGAGGGGACCGUCCCCUCGGUAAUGGCGAAUGGGACCCA [G1U G39U]
Result: T

Task: Check this variant for self-cleavage at or above 0.3: GGCCGGCAUGGUCCCAGCCUCCUCGCUGGCGCCGGCUGGGCAACAUUCCGAGGGGACCGUCACCUCGGGAAUGGCGAAUGGGACCCA [C62A U69G]
Result: T

Task: Check this variant for self-cleavage at or above 0.3: GGCCGGCAUGGUCCCAGCCUCCUCGCUGCCGCCGGCUGGGCAACAUUCCGAGGGGACCGUCCCCCCGGUAAUGGCGAAUGGGACCCA [G29C U65C]
Result: F

Task: Check this variant for self-cleavage at or above 0.3: GGCCGGCAUGGUCCCAGCCUCCUCGCUGGCGCCGGUUGGGCAACAUUCCGAGGGGACCGUCCACUCGGUAAUGGCGAAUGGGACCCA [C36U C63A]
Result: T

Task: Check this variant for self-cleavage at or above 0.3: GGCCGGCAUGGUCCCAGCCUCCUCGCUGGCGCCGGCUGGGCAACAUUCCGAGGGGACUGUCCCCUCGGUAAUGGCGAAUGUGACCCA [C58U G81U]
Result: F

Task: Check this variant for self-cleavage at or above 0.3: GGCCGGCAUGGUCCCAGCCUCCUCGCUGGCGCCGGCUGGGCAACAUGCCGAGGUGACCGUCCCCUCGGUAAUGGCGAAUGGGACCCA [U47G G54U]
Result: T

Task: Check this variant for self-cleavage at or above 0.3: GGCCGGCAUGGUCCCAGACUCCUGGCUGGCGCCGGCUGGGCAACAUUCCGAGGGGACCGUCCCCUCGGUAAUGGCGAAUGGGACCCA [C18A C24G]
Result: F

Task: Check this variant for self-cleavage at or above 0.3: GGCCGGCAUAGUCCCAGCCUCCUCGCUGGCGCCGACUGGGCAACAUUCCGAGGGGACCGUCCCCUCGGUAAUGGCGAAUGGGACCCA [G10A G35A]
Result: F
